# Tested on: LPA 18:2
# test_protocol: Rat whole blood (plasma) LPA assay
# Format: biochemical
outcome_measure: IC50

molecule: CCc1nc2cnc(N3CCN(CC(=O)N4CC(O)C4)CC3)cn2c1N(C)c1nc(-c2ccc(F)cc2C#N)cs1 [Cpd 16]
outcome_measure: IC50
result: > 1000 nM
--
molecule: CCc1nc2cnc(N3CCN(CC(=O)N4CC(O)C4)CC3)cn2c1N(C)c1ncc(C#N)c(-c2ccc(F)cc2)n1 [Cpd 19]
outcome_measure: IC50
result: > 1000 nM
--
molecule: CCc1nc2ccc(C3CCN(S(C)(=O)=O)CC3)nn2c1N(C)c1nc(-c2ccc(F)cc2C#N)c(CO)s1 [Cpd 206]
outcome_measure: IC50
result: 100 to 500 nM

Item CCc1nc2ccc(C3CCN(CC(=O)N4CC(O)C4)CC3)nn2c1N(C)c1ccnc(-c2ccc(F)cc2)n1 [Cpd 216] : provide IC50 > 1000 nM

Item CCc1nc2cnc(N3CCN(CC(=O)N4CC[C@H](O)C4)CC3)cn2c1N(C)c1nc(-c2ccc(F)cc2)c(C#N)s1 [Cpd 7] : provide IC50 100 to 500 nM

Item CCc1nc2cnc(C3CCN(CC(=O)N4CC[C@H](O)C4)CC3)cn2c1N(C)c1nc(-c2ccc(F)cc2)c(C#N)s1 [Cpd 25] : provide IC50 0.01 to 100 nM

Item CCc1nc2cnc(C3CCN(CC(=O)N4CC(O)C4)CC3)cn2c1N(C)c1nc(-c2ccc(F)cc2)c(C#N)s1 [Cpd 23] : provide IC50 100 to 500 nM

Item CCc1nc2ccc(C3CCN(S(C)(=O)=O)CC3)nn2c1N(C)c1nc(-c2ccc(F)cc2C#N)cs1 [Cpd 205] : provide IC50 100 to 500 nM

Item CCc1nc2cnc(N3CCN(CC(=O)N4CC[C@@H](O)C4)CC3)cn2c1N(C)c1nc(-c2ccc(F)cc2)c(C#N)s1 [Cpd 6] : provide IC50 100 to 500 nM

Item CCc1nc2ccc(C3CCN(CC(=O)N4CC(O)C4)CC3)nn2c1N(C)c1ccc(C#N)c(-c2ccc(F)cc2)n1 [Cpd 218] : provide IC50 100 to 500 nM

Item CCc1nc2ccc(N3CCC(N4CCOCC4)C3)nn2c1N(C)c1nc(-c2ccc(F)cc2)c(C#N)s1 (stereo not drawn) [Cpd 149] : provide IC50 0.01 to 100 nM

Item CN(c1nc(-c2ccc(F)cc2)cs1)c1c(CCC#N)nc2ccc(C3CCN(S(C)(=O)=O)CC3)nn12 [Compound 198] : provide IC50 0.01 to 100 nM

Item CCc1nc2ccc(N3CCN(CC(=O)N(C)C)CC3)nn2c1N(C)c1nc(-c2ccc(F)cc2)cs1 [Cpd 42] : provide IC50 100 to 500 nM

Item CCc1nc2cnc(N3CCN(CC(=O)N4CC(O)C4)CC3)cn2c1N(C)c1nc(-c2ccc(F)cc2)cs1 [Cpd 14] : provide IC50 > 1000 nM

Item CCc1nc2cnc(N3CCN(CC(=O)N(C)C)CC3)cn2c1N(C)c1nc(-c2ccc(F)cc2)c(C#N)s1 [Cpd 5] : provide IC50 > 1000 nM
